Each recorded value in this set is attributed to PubChem BioAssay (NCI).

Tested on: SF-268 CNS
Test: NCI-60 one-dose screen, 48 h (100 = growth as untreated, 0 = no growth, -100 = all killed)
Details: 10 µM
This is part of a sample that, as a whole, favours compounds with a hit. Of some 83,000 tested, about 20% had one in any assay.
Record form. Attribute: growth. Fill in for each entry.
One number for each entry, in %.

O=S(=O)(NCCCNc1nccc(-c2cn(-c3ccccc3)nc2-c2ccc(Cl)c(O)c2)n1)c1ccccc1: 68.5
CCCCN(CCCC)C(=O)[C@H](CC)[C@@H]1CC[C@@H](C)[C@@H]([C@H](C)[C@@H](O)[C@@H](C)C(=O)[C@H](CC)C2O[C@]3(C=CC(=O)[C@]4(CC[C@@](C)([C@H]5CC[C@](O)(CC)[C@H](C)O5)O4)O3)[C@H](C)C[C@@H]2C)O1 (stereo partly drawn): 68.6

Shifting focus to the compound that follows.
Task: Give a short answer stating reported growth for COc1cc(/C=C/c2cc(/C=C/c3ccc(O)c(OC)c3)nc(N)n2)ccc1O .
Result: 3.56

----------
System: BT-549 breast
Test: NCI-60 one-dose screen, 48 h (100 = growth as untreated, 0 = no growth, -100 = all killed)
Settings: 10 µM
About 83,000 compounds went through this panel and 20% of them were active in at least one assay; those are over-represented in the sample as a whole.
Value kind: growth (%)
Give bare numbers, in %.

Record excerpt, results attached:
N#Cc1ccc(C(=O)CSc2nccc(Nc3ccc(C(=O)O)cc3)n2)cc1: 103
Cc1ccc(/C=C/C(=O)C(=O)/C=C/c2ccc(C)cc2)cc1: 95.3
COc1ccc(Cl)cc1Nc1nc(C(F)(F)F)ccc1C(=O)N/N=C/c1ccc(Cl)cc1: 36.9
CCN1C(=O)CC(SC2CC(=O)N(CC)C2=O)C1=O (stereo not given): 101
COc1cc(C(=O)N2CCN(c3cc4c(cc3F)c(=O)c(C(=O)NO)cn4C3CC3)CC2)cc(OC)c1OC: 105
O=[N+]([O-])c1cccc(/C=N/NC(=S)NC23CC4CC(CC(C4)C2)C3)c1: 100
COc1cc(C)ccc1Oc1nc(Nc2ccc(N3CCOCC3)cc2)ncc1NC(=O)Nc1cc(C(F)(F)F)cc(C(F)(F)F)c1: 78.3
COc1ccc(C(=O)N/N=C/c2cc(C(F)(F)F)ccc2Cl)cc1: 96.1

Okay, here is my list. What is growth for each of these?
1. CCc1c2c(nc3ccc(OC(=O)N4CCC(N5CCCCC5)CC4)cc13)-c1cc3c(c(=O)n1C2)COC(=O)[C@]3(O)CC
2. CCN(CC)c1ccc(/C=C2\SC(=O)C(Nc3nnc(-c4cccnc4SCc4ccccc4)o3)C2=O)cc1 (stereo not given)
3. Cn1c2ccccc2c2c3[nH][nH]c(=O)c3c3c4ccccc4[nH]c3c21
4. NS(=O)(=O)Oc1ccc(-c2ccc3sccc3c2)cc1
5. CCOc1ccccc1/C=N\N=C\c1ccccc1O

Result:
1: 22.1; 2: 59.3; 3: 20.5; 4: 91.1; 5: 84.2

----------
System: BT-549 breast
Experiment: NCI-60 one-dose screen, 48 h
Settings: 10 µM
Compounds without any hit were thinned out: in the full panel of roughly 83,000, 20% have a hit. The source made the active and inactive calls. The calls were made as follows: active = growth percent below 10; inactive = the rest.
# valid calls are active, inactive; nothing else

These solved cases illustrate the format of a correct answer.
Cc1cc(SC#N)cc(C(C)(C)C)c1O: inactive
COc1cc(-c2nn(-c3cccc(NC(=O)CCNc4ccc(N5CCOCC5)cc4)c3)cc2-c2ccncc2)ccc1Cl: inactive
COc1cc(/C=C/c2cc(/C=C/c3ccc(O)c(OC)c3)n(C(=O)Nc3ccc(C)cc3)n2)ccc1O: active
CC(C1=C(CN(C(=O)Cc2cn(-c3ccccc3)nc2-c2ccc(Cl)cc2)C(C)C)Cc2ccccc21)c1ccccn1 (centres undefined): inactive
COc1cc(-c2ccc(N=Nc3ccc4c(S(=O)(=O)O)ccc(N)c4c3O)c(OC)c2)ccc1N=Nc1ccc2c(S(=O)(=O)O)ccc(N)c2c1O: inactive
COc1cc2cc(Oc3ccc(NC(=O)c4cccc(C(F)(F)F)c4)cc3)c(C)nc2cc1OC: inactive
CCCCN1C(=O)CC(SC2CC(=O)N(CCCC)C2=O)C1=O (centres undefined): inactive
CCn1c(SC/C(=N/O)c2ccccc2)nnc1-c1ccccc1: inactive

--- query ---
Task: Name the outcome recorded for O=C1c2c(c(=O)[nH]c3ccccc23)CCN1Cc1ccccc1 in the assay.
Result: inactive

----------
Record form. Attribute: growth. Fill in for each entry.
Test system: UO-31 renal
Assay: NCI-60 one-dose screen, 48 h (100 = growth as untreated, 0 = no growth, -100 = all killed)
Conditions: 10 µM
This is part of a sample that, as a whole, favours compounds with a hit. Of some 83,000 tested, about 20% had one in any assay.
Numbers only, in %.

Record excerpt, results attached:
CCCCCCCCCCOC(c1ccccc1)c1ccccc1: 75.6
CCOC(=O)c1cc(C(=O)c2ccc(Cl)cc2)n2ccc(-c3cc[n+](CC(=O)c4ccc(OC)cc4)cc3)cc12: 73.5
COc1ccc(Cl)cc1Nc1nc(C(F)(F)F)ccc1C(=O)N/N=C/c1ccc(Cl)cc1: 18.8
CN(C)CCCOc1ccccc1NC1=C(Cl)C(=O)C(Nc2ccccc2OCCCN(C)C)=C(Cl)C1=O: -99
CC(=O)C1N=NCC1c1ccccc1 (centres undefined): 92.3
CCCN(CCC)C(=O)[C@H](CC)[C@@H]1CC[C@@H](C)[C@@H]([C@H](C)[C@@H](O)[C@@H](C)C(=O)[C@H](CC)C2O[C@]3(C=C[C@@H](O)[C@]4(CC[C@@](C)([C@H]5CC[C@](O)(CC)[C@H](C)O5)O4)O3)[C@H](C)C[C@@H]2C)O1 (some centres undefined): -16.8
O=C(Nc1ccc(NS(=O)(=O)c2ccc(F)cc2)cc1)C12CC3CC(CC(C3)C1)C2: 75.1
C1CN(CC2CCC(CN3CCOCC3)O2)CCO1 (centres undefined): 93.6

Shifting focus to the compound that follows.
Task: Give a short answer stating reported growth for COc1cc(C2CC(c3ccccc3)=NN2C(C)=O)cc(OC)c1OC (centres undefined) .
Result: 58.1

----------
Tested on: RPMI-8226 leukemia
Assay: NCI-60 one-dose screen, 48 h (100 = growth as untreated, 0 = no growth, -100 = all killed)
Settings: 10 µM
The panel holds about 83,000 compounds, 20% with a hit somewhere; the sample as a whole holds those more often.
Value kind: growth (%)
Answers are plain numbers, in %.

Record excerpt, results attached:
CNC(=O)c1c(I)c(NC(C)=O)c(I)c(C(=O)O)c1I: 110
Nc1cc(Br)c(-c2nn3c(CCC(=O)c4nc5ccccc5[nH]4)nnc3s2)c(Br)c1: 85.1
Cn1cnc([N+](=O)[O-])c1/C=C1\Oc2ccc(Br)cc2C1=O: 4.16

Okay, here is my list. What is growth for each of these?
1. COc1cc2c(Nc3ccc(-c4ccc(N)cc4)cc3)ncnc2c(OC)c1OC
2. CC(=O)Oc1cc(OC(C)=O)c2ccccc2c1OC(C)=O
3. O=[N+]([O-])c1cc(Cl)cc(Cl)c1O
4. C/C(=N\O)c1ccc(NC(=O)CSc2nnc(-c3ccccc3)n2-c2ccccc2)cc1
5. OC[C@H]1OC([S-])[C@H](O)[C@@H](O)[C@@H]1O.[Au+] (stereo not given in full)
6. CCOC(=O)N/N=C/c1ccc(OC)c(OC)c1

Result:
[39.5, 72.5, 103, 91.2, 80.6, 102]

Okay, here is my list. What is growth for each of these?
1. CN1CCN(CC(=O)Nc2cccc(-n3cc(-c4ccncc4)c(-c4ccc(Cl)c(O)c4)n3)c2)CC1
2. CCC(C)[C@H](NC(C)=O)C(=O)N[C@@H](CCCNC(=N)N)C(=O)N[C@@H](CCCCN)C(=O)N[C@@H](CC1CCC(O)CC1)C(=O)NC(C(=O)N[C@@H](CCSC)C(=O)N[C@@H](CCCNC(=N)N)C(=O)N[C@@]1(C)CCC/C=C\CCC[C@@](C)(C(=O)NC(C(=O)N[C@@H](CCC(=O)O)C(=O)N[C@@H](CC(C)C)C(=O)N[C@H](C(=O)N[C@@H](CCC(=O)O)C(N)=O)C(C)C)[C@@H](C)O)NC(=O)[C@H](CCC(N)=O)NC(=O)[C@H](CC(C)C)NC(=O)[C@H](CC(C)C)NC1=O)[C@@H](C)O (stereo not given in full)

Result:
[15.9, 95]

----------
Test system: HOP-92 NSCLC
Experiment: NCI-60 one-dose screen, 48 h (100 = growth as untreated, 0 = no growth, -100 = all killed)
Details: 10 µM
Procedure: Growth inhibition of the HOP-92 human Non-Small Cell Lung tumor cell line is measured as a screen for anti-cancer activity. Cells are grown in 96 well plates and exposed to the test compound for 48 hours. Compounds are tested at a single concentration, which is 10^-5 M for most compounds. The reported endpoint is percent growth (GI% or GIPRCNT), where numbers from 0 - 100% represent growth inhibition, and numbers from -100% - 0 represent cell death. […]
This is part of a sample that, as a whole, favours compounds with a hit. Of some 83,000 tested, about 20% had one in any assay.
Record form. Attribute: growth. Fill in for each entry.
Numbers only, in %.

Record excerpt, results attached:
CNC(=O)c1cc(Oc2ccc3c(c2)sc2nc(-c4ccc(NC(=O)Nc5ccc(Cl)c(C(F)(F)F)c5)cc4)cn23)ccn1: 88.6
OC(CCN1CCCC1)(c1ccccc1)C1CCCCC1 (stereo unspecified): 115
CN1CCN(CC(=O)Nc2cccc(-n3cc(-c4ccncc4)c(-c4ccc(Cl)c(O)c4)n3)c2)CC1: 15.4
Nc1nc(Cn2c(-c3nonc3N)nc3ccccc32)nc(N2CCCCC2)n1: 82.3

Okay, here is my list. What is growth for each of these?
1. O=C1c2ccccc2C(=O)N1CCCCNc1ccccc1
2. NC(N)=N/N=C(\c1ccccc1)C(O)c1ccccc1 (stereo unspecified)

Result:
106
95
